- targetOrTestSystem: Prostate specific antigen (PSA), purified from human seminal fluid (human, UniProt P07288 25-261)
- assayInfo: cell-based or functional assay
Bridge positions count the residues as written; N and C are the ends. Ends that are not written are not given here.
assayMetric: PSA-peptide/PSA ratio (ratio)
Give the quantity in ratio, number only.

CVAYAIQHHC (disulfide 1-10 (inferred)) [C-4-4 (C-4 10A5Q7)]
1.1
CVAYCIEHHCWTC (disulfide 1-13, 5-10) [chemically synthesized peptide C-4 without GA flanks (C-4-1, C4 parent)]
2.1
CVFTSNYAYC (disulfide 1-10 (inferred)) [A-1-2 (A-1 N6Y9)]
2.3
CVFAHNYNALVC (disulfide 1-12 (inferred)) [B-2-3 (B-2 N8A9)]
2.6
CVYTSDYAYC (disulfide 1-10 (inferred)) [A-1-5 (A-1 Y39)]
1

Next binder, PSA-peptide/PSA ratio to be filled in.
Inquiry: Look up PSA-peptide/PSA ratio: CVAFCIEHHCWTC (disulfide (positions not given here)) [C-4-2 (C-4 F4)]
Reply text: 2.3
